Reference source: ChEMBL document CHEMBL3352261

experiment: Cmax in SCID mouse at 25 mg/kg, po; type: ADME, organism-based; parameters: dose 25 mg/kg, route oral; conditions: in vivo
metric name: Cmax (ng/mL)
I only need the number, in ng/mL, no unit after it.

For reference, reported Cmax for CCc1ccccc1C(C(=O)Nc1ccc2[nH]nc(-c3cccc(S(N)(=O)=O)c3)c2c1)N(C)C (racemic) stands at 130

====

Measurement record for Cytochrome P450 2C19 (Homo sapiens, UniProt P33261); quantity recorded: IC50.

Example entries begin here.
For reference, reported IC50 for NS(=O)(=O)c1cccc(-c2n[nH]c3ccc(NC(=O)C(c4ccsc4)N4CCCC4)cc23)c1 (racemic) stands at 5300 nM

For reference, reported IC50 for CCc1ccccc1C(C(=O)Nc1ccc2[nH]nc(-c3cccc(S(N)(=O)=O)c3)c2c1)N(C)C (racemic) stands at 2300 nM

Please examine the following record next.
For reference, reported IC50 for "CCc1cccc(CC)c1NC(=O)Nc1ccc2[nH]nc(-c3cccc(S(N)(=O)=O)c3)c2c1" stands at > 1000 nM

====

target: Dual specificity protein kinase TTK (Homo sapiens); experiment: Inhibition of SUMO-tagged human TTK (1-275 residues) compound pre-incubated for 15 mins prior ATP addition by MBP-based assay
Sequence (P33981 whole entry, the tested form may be a part): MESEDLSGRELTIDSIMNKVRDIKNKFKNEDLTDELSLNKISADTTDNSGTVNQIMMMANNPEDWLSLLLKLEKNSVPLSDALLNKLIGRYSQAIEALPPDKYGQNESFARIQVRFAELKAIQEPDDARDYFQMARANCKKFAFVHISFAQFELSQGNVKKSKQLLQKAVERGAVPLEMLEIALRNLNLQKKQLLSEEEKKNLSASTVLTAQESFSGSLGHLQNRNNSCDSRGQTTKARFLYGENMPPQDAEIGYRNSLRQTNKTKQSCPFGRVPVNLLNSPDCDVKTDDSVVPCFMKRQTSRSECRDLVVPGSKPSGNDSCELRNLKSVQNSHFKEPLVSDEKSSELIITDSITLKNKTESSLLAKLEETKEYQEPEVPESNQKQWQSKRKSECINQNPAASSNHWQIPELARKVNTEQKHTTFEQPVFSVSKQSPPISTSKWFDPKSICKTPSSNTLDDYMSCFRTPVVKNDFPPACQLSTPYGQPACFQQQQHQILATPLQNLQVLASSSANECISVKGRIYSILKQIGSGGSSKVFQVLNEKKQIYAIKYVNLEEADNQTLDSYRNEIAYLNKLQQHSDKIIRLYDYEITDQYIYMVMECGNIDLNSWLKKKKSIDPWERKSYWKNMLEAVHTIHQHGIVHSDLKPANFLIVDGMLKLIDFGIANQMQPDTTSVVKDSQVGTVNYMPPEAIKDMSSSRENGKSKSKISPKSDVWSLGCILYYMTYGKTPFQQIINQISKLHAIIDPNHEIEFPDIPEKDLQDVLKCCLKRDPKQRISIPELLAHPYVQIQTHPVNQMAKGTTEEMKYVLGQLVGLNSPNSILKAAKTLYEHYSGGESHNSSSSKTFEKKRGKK
pIC50: −log10 of the molar value.
Label Y when pIC50 is at or above 7; otherwise label N.

Worked examples follow.
Is pIC50 at least 7? Consider "CO[C@H](C(=O)Nc1ccc2[nH]nc(-c3cccc(S(N)(=O)=O)c3)c2c1)c1ccccc1"
Y

Is pIC50 at least 7? Consider "CCc1cccc(CC)c1NC(=O)Nc1ccc2[nH]nc(-c3cccc(S(N)(=O)=O)c3)c2c1"
Y

Is pIC50 at least 7? Consider "NS(=O)(=O)c1cccc(-c2n[nH]c3ccc(-c4ccccc4)cc23)c1"
N

More entries:
Is pIC50 at least 7? Consider "NS(=O)(=O)c1cccc(-c2n[nH]c3ccc(NC(=O)C4(c5ccccc5)CC4)cc23)c1"
N

Is pIC50 at least 7? Consider "CCc1cccc(CC)c1CC(=O)Nc1ccc2[nH]nc(-c3cccc(S(N)(=O)=O)c3)c2c1"
Y

Is pIC50 at least 7? Consider "NS(=O)(=O)c1cccc(-c2n[nH]c3cc(-c4ccccc4)ccc23)c1"
N

Is pIC50 at least 7? Consider NS(=O)(=O)c1cccc(-c2n[nH]c3ccc(C(=O)NC(c4ccsc4)C4CC4)cc23)c1 (racemic)
Y

Is pIC50 at least 7? Consider "COc1cccc2[nH]nc(-c3cccc(S(N)(=O)=O)c3)c12"
N

Is pIC50 at least 7? Consider "NS(=O)(=O)c1cccc(-c2n[nH]c3ccc(OCCc4cccs4)cc23)c1"
N

====

test: Cmax in SCID mouse at 25 mg/kg, ip; type: ADME, organism-based; parameters: dose 25 mg/kg, route intraperitoneal; settings: in vivo
metric name: Cmax (ng/mL)
I only need the number, in ng/mL, no unit after it.

For reference, reported Cmax for CCc1ccccc1C(C(=O)Nc1ccc2[nH]nc(-c3cccc(S(N)(=O)=O)c3)c2c1)N(C)C (racemic) stands at 4800

====

Measurement record for Serine/threonine-protein kinase PLK4 (Homo sapiens, UniProt O00444); quantity recorded: IC50.
I only need the number, in nM, no unit after it.

For reference, reported IC50 for "CCc1cccc(CC)c1NC(=O)Nc1ccc2[nH]nc(-c3cccc(S(N)(=O)=O)c3)c2c1" stands at 130

Please examine the following record next.
For reference, reported IC50 for CCc1ccccc1C(C(=O)Nc1ccc2[nH]nc(-c3cccc(S(N)(=O)=O)c3)c2c1)N(C)C (racemic) stands at 83
